# Tested on: CCRIS mutagenicity, Ames/micronucleus/aberration tests
# Protocol Details: CCRIS mutagenicity studies
# Reported Conditions: Test System: AMES SALMONELLA TYPHIMURIUM; Strain/Indicator: TA97; Metabolic Activation: NONE; Method: STANDARD PLATE
Activity calls are given as the source filed them. The rule behind the calls is not given here.

[
  {
    "Structure String": "C#CCOCC[n+]1ccccc1/C=N/O",
    "mutagenic call": "inactive; negative"
  },
  {
    "Structure String": "Cc1ncc([N+](=O)[O-])n1C",
    "mutagenic call": "active; positive"
  },
  {
    "Structure String": "O=C1C=Cc2ccc3c4c(ccc1c24)C(=O)C=C3",
    "mutagenic call": "active; positive"
  },
  {
    "Structure String": "c1ccc2nc3ccccc3cc2c1",
    "mutagenic call": "inactive; negative"
  },
  {
    "Structure String": "c1ccc(C(c2ccccc2)c2ccccc2)cc1",
    "mutagenic call": "inactive; negative"
  },
  {
    "Structure String": "COP(=S)(OC)Oc1ccc(Sc2ccc(OP(=S)(OC)OC)cc2)cc1",
    "mutagenic call": "inactive; negative"
  },
  {
    "Structure String": "CC(C)(C)c1cc(O)ccc1O",
    "mutagenic call": "inactive; negative"
  },
  {
    "Structure String": "COc1ccc(CN(CCN(C)C)c2ccccn2)cc1",
    "mutagenic call": "inactive; negative"
  },
  {
    "Structure String": "COC(=O)COc1ccc(Cl)cc1Cl",
    "mutagenic call": "inactive; negative"
  }
]

* * *

# System: CCRIS mutagenicity, Ames/micronucleus/aberration tests
# Protocol Details: CCRIS mutagenicity studies
# Reported Conditions: Test System: AMES SALMONELLA TYPHIMURIUM; Strain/Indicator: TA1535; Metabolic Activation: RAT, LIVER, S-9, AROCLOR 1254; Method: PREINCUBATION
The source made the active and inactive calls. The rule behind the calls is not given here.
Outcome codes: True for active, False for inactive

[
  {
    "Compound": "O=NN1CCOC(O)C1 (centres undefined)",
    "Class Assignment": "True"
  },
  {
    "Compound": "ClC(Cl)(Cl)C(Cl)(Cl)Cl",
    "Class Assignment": "False"
  },
  {
    "Compound": "O=c1[nH]c(=O)n([C@H]2C[C@H](O)[C@@H](CO)O2)cc1CCCCl",
    "Class Assignment": "False"
  },
  {
    "Compound": "CCCCOB(OCCCC)OCCCC",
    "Class Assignment": "False"
  },
  {
    "Compound": "Oc1ccccc1O",
    "Class Assignment": "False"
  },
  {
    "Compound": "C[C@@H]1Cc2c(Cl)cc(C(=O)NC(Cc3ccccc3)C(=O)O)c(O)c2C(=O)O1 (some centres undefined)",
    "Class Assignment": "False"
  },
  {
    "Compound": "CC(C)(C#N)N=NC(C)(C)C#N",
    "Class Assignment": "False"
  },
  {
    "Compound": "C[C@]12CCC(=O)C=C1[C@@H]1C[C@@H]1[C@H]1[C@@H]3[C@@H]4C[C@@H]4[C@@]4(CCC(=O)O4)[C@@]3(C)CC[C@@H]12",
    "Class Assignment": "False"
  },
  {
    "Compound": "CC(I)C1OCC(CO)O1 (centres undefined)",
    "Class Assignment": "True"
  }
]
